# System name: mouse NMDA receptor (NR1 subunit and NR2B subunit co-expressed in HEK293 cells) (Mus musculus, UniProt P35438+Q01097)
# Sequence (Q01097 27-1482, other chains not shown): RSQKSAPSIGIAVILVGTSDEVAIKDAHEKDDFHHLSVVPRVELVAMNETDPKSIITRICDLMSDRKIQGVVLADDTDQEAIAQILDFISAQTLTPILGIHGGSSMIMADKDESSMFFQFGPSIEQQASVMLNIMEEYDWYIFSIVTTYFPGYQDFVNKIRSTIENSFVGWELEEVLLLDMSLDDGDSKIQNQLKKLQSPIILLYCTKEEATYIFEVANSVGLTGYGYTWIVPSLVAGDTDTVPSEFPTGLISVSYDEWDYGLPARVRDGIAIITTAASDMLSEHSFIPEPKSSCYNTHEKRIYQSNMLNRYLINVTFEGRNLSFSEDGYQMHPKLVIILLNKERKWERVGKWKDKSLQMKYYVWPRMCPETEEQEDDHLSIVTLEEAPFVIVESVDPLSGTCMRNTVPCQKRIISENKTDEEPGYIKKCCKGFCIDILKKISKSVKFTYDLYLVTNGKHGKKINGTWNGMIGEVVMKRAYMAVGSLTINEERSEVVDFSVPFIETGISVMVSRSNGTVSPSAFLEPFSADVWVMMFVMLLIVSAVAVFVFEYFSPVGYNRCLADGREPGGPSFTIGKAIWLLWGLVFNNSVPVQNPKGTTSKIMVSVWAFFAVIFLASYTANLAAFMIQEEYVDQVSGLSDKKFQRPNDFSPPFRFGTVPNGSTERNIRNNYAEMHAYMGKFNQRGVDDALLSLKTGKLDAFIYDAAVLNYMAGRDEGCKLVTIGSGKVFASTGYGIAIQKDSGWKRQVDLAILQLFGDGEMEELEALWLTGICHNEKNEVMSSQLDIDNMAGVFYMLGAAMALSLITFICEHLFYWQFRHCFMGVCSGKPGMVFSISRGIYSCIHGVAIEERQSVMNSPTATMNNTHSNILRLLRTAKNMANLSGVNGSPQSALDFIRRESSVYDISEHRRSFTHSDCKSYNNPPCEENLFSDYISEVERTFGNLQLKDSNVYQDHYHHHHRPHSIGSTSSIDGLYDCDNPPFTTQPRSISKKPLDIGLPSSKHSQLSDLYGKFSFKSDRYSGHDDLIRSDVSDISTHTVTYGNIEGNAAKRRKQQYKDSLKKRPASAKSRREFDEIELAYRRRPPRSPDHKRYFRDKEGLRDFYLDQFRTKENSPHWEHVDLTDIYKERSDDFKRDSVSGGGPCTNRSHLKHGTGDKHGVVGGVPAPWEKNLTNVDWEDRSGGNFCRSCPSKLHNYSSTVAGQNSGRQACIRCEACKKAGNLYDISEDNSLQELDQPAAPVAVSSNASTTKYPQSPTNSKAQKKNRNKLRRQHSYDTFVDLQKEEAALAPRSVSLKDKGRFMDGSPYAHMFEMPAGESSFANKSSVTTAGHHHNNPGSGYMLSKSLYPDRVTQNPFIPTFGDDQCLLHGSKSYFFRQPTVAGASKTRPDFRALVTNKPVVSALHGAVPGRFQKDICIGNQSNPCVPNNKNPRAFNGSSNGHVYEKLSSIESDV
# Method description: Expression of NMDA receptor and measurement of Ca ion flow in amount (HEK293 cells, Fluo-3/AM, FDSS3000)
# Condition set: Ca ion flow in induced with glutamic acid 20 μM/glycine 2 μM, read-out: Ca2+ 1050
# Experimental: Test Example 2 Expression of NMDA receptor and measurement of Ca ion flow in amount A complementary DNA (cDNA) of a mouse NMDA receptor subunit was transiently introduced into HEK293 cells and, after one day from introduction, change in a glutamic acid/glycine-induced intracellular Ca amount was measured using a Ca ion reactive fluorescent dye. HEK293 cells were cultured and passaged using a modified Dulbecco's Eagle medium (DMEM, low glucose). […]
pIC50: −log10 of the molar value.
Reported endpoint: pIC50

Enquiry: Which pIC50 value belongs to `C[C@@H]1CN(c2cc(F)cc(F)c2)CCN1C(=O)C(=O)Nc1ccc2[nH]c(=O)oc2c1` ?
Return: 7.32

(1) O=C(CNc1ccc2[nH]c(=O)oc2c1)N1CCN(c2ccc(Cl)c(F)c2)CC1
(2) C[C@@H]1CN(C(=O)CNc2ccc3[nH]c(=O)oc3c2)CCN1c1ccc(OC(F)(F)F)cc1
Enquiry: Given 1 and given 2 , which shows the smaller recorded pIC50? Please respond with the label that marks your chosen entry.
Return: 1

====

# System name: mouse NMDA receptor (NR1 subunit and NR2B subunit co-expressed in HEK293 cells) (Mus musculus, UniProt P35438+Q01097)
# Method description: Expression of NMDA receptor and measurement of Ca ion flow in amount (HEK293 cells, Fluo-3/AM, FDSS3000)
# Condition set: Ca ion flow in induced with glutamic acid 20 μM/glycine 2 μM, read-out: Ca2+ 1050
# Experimental: Test Example 2 Expression of NMDA receptor and measurement of Ca ion flow in amount A complementary DNA (cDNA) of a mouse NMDA receptor subunit was transiently introduced into HEK293 cells and, after one day from introduction, change in a glutamic acid/glycine-induced intracellular Ca amount was measured using a Ca ion reactive fluorescent dye. HEK293 cells were cultured and passaged using a modified Dulbecco's Eagle medium (DMEM, low glucose). […]
Reported endpoint: IC50 (nM)

Example entries and their recorded answers appear below.
Enquiry: Which IC50 value belongs to `C[C@@H]1CN(CC(=O)Nc2ccc3[nH]c(=O)oc3c2)CCN1c1ccc(Cl)c(F)c1` ?
Return: 4

Enquiry: Which IC50 value belongs to `C[C@@H]1CN(C(=O)C(=O)Nc2ccc3[nH]c(=O)oc3c2)CCN1c1ccc(C(F)(F)F)cc1` ?
Return: 5

Enquiry: Which IC50 value belongs to `C[C@@H]1CN(c2ccc(Cl)c(F)c2)CCN1C(=O)CNc1ccc2[nH]c(=O)oc2c1` ?
Return: 20

Enquiry: Which IC50 value belongs to `COc1c(F)cc(N2CCN(CC(=O)Nc3ccc4[nH]c(=O)oc4c3)C[C@H]2C)cc1F` ?
Return: 4

Enquiry: Which IC50 value belongs to `CC[C@@H]1CN(c2ccc(Cl)cc2)CCN1C(=O)C(=O)Nc1ccc2[nH]c(=O)oc2c1` ?
Return: 8

(a) C[C@@H]1CN(c2ccc(F)c(Cl)c2)CCN1CC(=O)Nc1ccc2[nH]c(=O)oc2c1
(b) Cc1cc(N2CCN(CC(=O)Nc3ccc4[nH]c(=O)oc4c3)C[C@H]2C)ccc1Cl
(c) C[C@@H]1CN(CC(=O)Nc2ccc3[nH]c(=O)oc3c2)CCN1c1ccc(Cl)cc1
Enquiry: Ordering criterion: IC50; begin with the maximum. Answer by listing the labels in the order asked for.
Return: a, b, c
